Test: Half life in 10% aqueous ammonia buffer at pH 8 assessed as hydrolysis to 2-bromo-6-(1H-imidazol-1-yl)-7H-indeno[2,1-c]quinolin-7-one oxime at 37 degC by LC-MS analysis
Format: physicochemical
Property: half-life; scope: individual compounds
All answers are understood in h, so give the number only.

| Compound | half-life [h] |
| --- | --- |
| CCCCCCCCCC(=O)O/N=C1\c2ccccc2-c2c1c(-n1ccnc1)nc1ccc(Br)cc21 | 24 |
| C[C@H](NC(=O)OC(C)(C)C)C(=O)O/N=C1\c2ccccc2-c2c1c(N1CCN(c3ccccn3)CC1)nc1ccc(Br)cc21 | 48 |
| CC(C)(C)OC(=O)N[C@H](C(=O)O/N=C1\c2ccccc2-c2c1c(N1CCN(c3ccccn3)CC1)nc1ccc(Br)cc21)C(C)(C)C | 48 |
| CCCCC(=O)O/N=C1\c2ccccc2-c2c1c(-n1ccnc1)nc1ccc(Br)cc21 | 72 |
| O=C(CCCCBr)O/N=C1\c2ccccc2-c2c1c(N1CCN(c3ccccn3)CC1)nc1ccc(Br)cc21 | 96 |

*Q* Can you look up the measured half-life of CCCCCCCCC(=O)OC1(C)c2ccccc2-c2c1c(-n1ccnc1)nc1ccc(Br)cc21 (stereo unspecified) for me?
*A* 288

*Q* Further, for "CCC(=O)O/N=C1\c2ccccc2-c2c1c(-n1ccnc1)nc1ccc(Br)cc21" ?
*A* 48

*Q* Further, for "CCC(=O)O/N=C1\c2ccccc2-c2c1c(N1CCN(c3ccccn3)CC1)nc1ccc(Br)cc21" ?
*A* 144

*Q* Further, for CCCCC(=O)OC1(C)c2ccccc2-c2c1c(-n1ccnc1)nc1ccc(Br)cc21 (stereo unspecified) ?
*A* 288

*Q* Further, for "O=C(CNC(=O)OCC1c2ccccc2-c2ccccc21)O/N=C1\c2ccccc2-c2c1c(N1CCN(c3ccccn3)CC1)nc1ccc(Br)cc21" ?
*A* 36

*Q* Further, for CC(C)(C)OC(=O)NCC(=O)OC1(C)c2ccccc2-c2c1c(-n1ccnc1)nc1ccc(Br)cc21 (stereo unspecified) ?
*A* 24

*Q* Further, for "CCCCCC(=O)O/N=C1\c2ccccc2-c2c1c(-n1ccnc1)nc1ccc(Br)cc21" ?
*A* 144

*Q* Further, for "O=C(/C=C/c1ccco1)O/N=C1\c2ccccc2-c2c1c(N1CCN(c3ccccn3)CC1)nc1ccc(Br)cc21" ?
*A* 96

* * *

Test system: Serum
Assay: Stability of the compound in 80% human blood serum assessed as hydrolysis to 2-bromo-6-(1H-imidazol-1-yl)-7H-indeno[2,1-c]quinolin-7-one oxime at 1 mg after 24 hrs at 37 degC by LC-MS analysis
Type: ADME, cell-free
Parameters: scale not given: the % may be the effect or the level left
Measurement Name: Activity (%)
All answers are understood in %, so give the number only.

Some compounds with known Activity results, for comparison:
| Compound | Target System | Activity [%] |
| --- | --- | --- |
| CCC(=O)O/N=C1\c2ccccc2-c2c1c(-n1ccnc1)nc1ccc(Br)cc21 | Serum | 90 |
| C[C@H](NC(=O)OC(C)(C)C)C(=O)O/N=C1\c2ccccc2-c2c1c(N1CCN(c3ccccn3)CC1)nc1ccc(Br)cc21 | Serum | 66 |
| CC(C)(C)OC(=O)NC(Cc1cccc(F)c1)C(=O)O/N=C1\c2ccccc2-c2c1c(N1CCN(c3ccccn3)CC1)nc1ccc(Br)cc21 (stereo not drawn) | Serum | 95 |
| CC(C)(C)OC(=O)NCC(=O)O/N=C1\c2ccccc2-c2c1c(N1CCN(c3ccccn3)CC1)nc1ccc(Br)cc21 | Serum | 95 |
| CC(C)[C@H](NC(=O)OCC1c2ccccc2-c2ccccc21)C(=O)O/N=C1\c2ccccc2-c2c1c(N1CCN(c3ccccn3)CC1)nc1ccc(Br)cc21 | Serum | 7 |

Please examine the following record next.
*Q* // fetch Serum Activity for "CCCCCCC(=O)O/N=C1\c2ccccc2-c2c1c(-n1ccnc1)nc1ccc(Br)cc21"
*A* 85

* * *

Experiment: Cytotoxicity against human U937 cells assessed as cell viability at 5 ug/ml after 72 hrs by MTT assay
Format: cell-based, U-937
Conditions: read-out: Activity
Lab note: cut-off is 80%. Strictly less in viability at 72 h, 5 ug/ml is label 1. Exactly 80% or more is label 0.

| Molecule | Class Name |
| --- | --- |
| CC1(O)c2ccccc2-c2c1c(-n1ccnc1)nc1ccc(Br)cc21 (configuration not stated) | label 1 |
| CCCCC(=O)OC1(C)c2ccccc2-c2c1c(-n1ccnc1)nc1ccc(Br)cc21 (configuration not stated) | label 1 |
| CCCCCCCCC(=O)OC1(C)c2ccccc2-c2c1c(-n1ccnc1)nc1ccc(Br)cc21 (configuration not stated) | label 1 |
| CCCCCC(=O)OC1(C)c2ccccc2-c2c1c(-n1ccnc1)nc1ccc(Br)cc21 (configuration not stated) | label 1 |
| CC(C)(C)OC(=O)NC(Cc1ccccc1)C(=O)O/N=C1\c2ccccc2-c2c1c(N1CCN(c3ccccn3)CC1)nc1ccc(Br)cc21 (configuration not stated) | label 0 |
| CCC(=O)O/N=C1\c2ccccc2-c2c1c(-n1ccnc1)nc1ccc(Br)cc21 | label 0 |
| CCCCCC(=O)O/N=C1\c2ccccc2-c2c1c(N1CCN(c3ccccn3)CC1)nc1ccc(Br)cc21 | label 0 |
| CC(C)(C)OC(=O)NCC(=O)OC1(C)c2ccccc2-c2c1c(-n1ccnc1)nc1ccc(Br)cc21 (configuration not stated) | label 0 |
| CC(C)[C@H](NC(=O)OCC1c2ccccc2-c2ccccc21)C(=O)O/N=C1\c2ccccc2-c2c1c(N1CCN(c3ccccn3)CC1)nc1ccc(Br)cc21 | label 0 |
| CCCCCCCCC(=O)O/N=C1\c2ccccc2-c2c1c(-n1ccnc1)nc1ccc(Br)cc21 | label 0 |

*Q* Check if viability at 72 h, 5 ug/ml falls below 80% for "CC(C)(C)OC(=O)N1CCC[C@H]1C(=O)O/N=C1\c2ccccc2-c2c1c(-n1ccnc1)nc1ccc(Br)cc21" .
*A* label 0

*Q* Further, for CC(C)(C)OC(=O)NC(Cc1cccc(F)c1)C(=O)O/N=C1\c2ccccc2-c2c1c(N1CCN(c3ccccn3)CC1)nc1ccc(Br)cc21 (configuration not stated) ?
*A* label 0

* * *

Test: Half life in 10% aqueous ammonia buffer at pH 8 assessed as hydrolysis to 2-bromo-6-(1H-imidazol-1-yl)-7H-indeno[2,1-c]quinolin-7-one oxime at 37 degC by LC-MS analysis
Format: physicochemical
Measurement Name: half-life

| Molecule | half-life |
| --- | --- |
| CCCCCCCCC(=O)O/N=C1\c2ccccc2-c2c1c(-n1ccnc1)nc1ccc(Br)cc21 | 1 days |
| CCCC(=O)O/N=C1\c2ccccc2-c2c1c(-n1ccnc1)nc1ccc(Br)cc21 | 1.5 days |
| CC(=O)NCC(=O)O/N=C1\c2ccccc2-c2c1c(N1CCN(c3ccccn3)CC1)nc1ccc(Br)cc21 | 6 days |
| CCCCCCC(=O)OC1(C)c2ccccc2-c2c1c(-n1ccnc1)nc1ccc(Br)cc21 (centres undefined) | 13 days |
| CCCCCCC(=O)O/N=C1\c2ccccc2-c2c1c(-n1ccnc1)nc1ccc(Br)cc21 | 2 days |

*Q* Can you look up the measured half-life of CC(C)(C)OC(=O)NC(Cc1ccccc1)C(=O)O/N=C1\c2ccccc2-c2c1c(N1CCN(c3ccccn3)CC1)nc1ccc(Br)cc21 (centres undefined) for me?
*A* 3 days

*Q* Further, for CCCCCCCC(=O)OC1(C)c2ccccc2-c2c1c(-n1ccnc1)nc1ccc(Br)cc21 (centres undefined) ?
*A* 11 days

*Q* Further, for "CC(C)(C)OC(=O)NCC(=O)O/N=C1\c2ccccc2-c2c1c(N1CCN(c3ccccn3)CC1)nc1ccc(Br)cc21" ?
*A* 0.15 days

*Q* Further, for "CCCCCC(=O)O/N=C1\c2ccccc2-c2c1c(N1CCN(c3ccccn3)CC1)nc1ccc(Br)cc21" ?
*A* 24 days

* * *

Property: viability at 72 h, 5 ug/ml; scope: individual compounds
Experiment: Cytotoxicity against human U937 cells assessed as cell viability at 5 ug/ml after 72 hrs by MTT assay
Type: cell-based, U-937
Details: read-out: Activity
All answers are understood in %, so give the number only.

Some compounds with known viability at 72 h, 5 ug/ml results, for comparison:
| Compound | Experimental Result |
| --- | --- |
| CN(C)C(=O)O/N=C1\c2ccccc2-c2c1c(N1CCN(c3ccccn3)CC1)nc1ccc(Br)cc21 | 100 |
| CC(=O)OC1(C)c2ccccc2-c2c1c(-n1ccnc1)nc1ccc(Br)cc21 (stereo not drawn) | 90 |
| CCCCCCCC(=O)OC1(C)c2ccccc2-c2c1c(-n1ccnc1)nc1ccc(Br)cc21 (stereo not drawn) | 72 |
| CCCC(=O)O/N=C1\c2ccccc2-c2c1c(-n1ccnc1)nc1ccc(Br)cc21 | 88 |
| CC(C)(C)OC(=O)N1CCC[C@H]1C(=O)O/N=C1\c2ccccc2-c2c1c(N1CCN(c3ccccn3)CC1)nc1ccc(Br)cc21 | 75 |

*Q* Can you look up the measured viability at 72 h, 5 ug/ml of "CCCCC(=O)O/N=C1\c2ccccc2-c2c1c(-n1ccnc1)nc1ccc(Br)cc21" for me?
*A* 82

*Q* Further, for "O/N=C1\c2ccccc2-c2c1c(N1CCN(c3ccccn3)CC1)nc1ccc(Br)cc21" ?
*A* 100

*Q* Further, for "O/N=C1\c2ccccc2-c2c1c(-n1ccnc1)nc1ccc(Br)cc21" ?
*A* 91
